As shown below, each of these substances has a reported MIC against K. pneumonia value.
System: Klebsiella pneumonia
Test: MIC against Gram-negative bacteria: Klebsiella pneumonia
Format: cell-based
Details: 96-well plate, 5×10^5 CFU/mL, 37° C., 10 h
Observation type: MIC against K. pneumonia (µg/mL)

Substance: PRT557 (CGCSPAGTLPEGCDEAGRCLCQPEFAGPHCDRCRPGYHGFPNCQA; listed as Homo sapiens)
Unit abbreviation: µg/mL
Recorded value: 25
//
Substance: PRT522 (CVCNGHAEVCNINNPEKLFRCECQHHTCGETCDRCCTGYNQRRWRPAAWEQSHECEA; listed as Homo sapiens)
Unit abbreviation: µg/mL
Recorded value: 12.5
//
Substance: PRT462 (DVDECLEGLDDCHYNQLCENTPGGHRCSCPRGYRMQGPS; listed as Homo sapiens)
Unit abbreviation: µg/mL
Recorded value: 12.5
//
Substance: PRT496 (CSCNNHSDTCDPNTGKCLNCGDNTAGDHCDVCTSGYYGKVTGSASDCAL; listed as Homo sapiens)
Unit abbreviation: µg/mL
Recorded value: 12.5
//
Substance: PRT559 (CHCSAEGSLHAACDPRSGQCSCRPRVTGLRCDTCVPGAYNFPYCEA; listed as Homo sapiens)
Unit abbreviation: µg/mL
Recorded value: 12.5
//
Substance: PRT501 (CGCNPVGSASDEPCTGPCVCKENVEGKACDRCKPGFYNLKEKNPRGCSE; listed as Homo sapiens)
Unit abbreviation: µg/mL
Recorded value: 25
//
Substance: PRT516 (CNCSGLGSKNEDPCFGPCICKENVEGGDCSRCKSGFFNLQEDNWKGCDE; listed as Homo sapiens)
Unit abbreviation: µg/mL
Recorded value: 50

* * *

System: Proteus vulgaris
Assay: MIC against Gram-negative bacteria: Proteus vulgaris
Assay type: cell-based
Conditions: Proteus vulgaris; 5×10^5 CFU/mL; 10 h cultivation at 37° C.
As shown below, each of these substances has a reported MIC against P. vulgaris value.
Observation type: MIC against P. vulgaris (µg/mL)

Substance: PRT1345 (NINECSSSPCLNKGICVDGVAGYRCTCVKGFVGLHCE; listed as Homo sapiens)
Observation type: MIC against P. vulgaris
Unit abbreviation: µg/mL
Recorded value: 25
//
Substance: PRT1404 (RAACPVLCSGNGQYSKGRCLCFSGWKGTECD; listed as Homo sapiens)
Observation type: MIC against P. vulgaris
Unit abbreviation: µg/mL
Recorded value: 25
//
Substance: PRT1417 (RACHPRCAEHGTCRDGKCECSPGWNGEHCT; listed as Homo sapiens)
Observation type: MIC against P. vulgaris
Unit abbreviation: µg/mL
Recorded value: 50
//
Substance: PRT1472 (LEHPCASLCCGHGTCIDGIGSFSCDCRSGWEGRFCQ; listed as Homo sapiens)
Observation type: MIC against P. vulgaris
Unit abbreviation: µg/mL
Recorded value: 25
//
Substance: PRT1418 (IAHYLDRVVKEGCPGLCNGNGRCTLDLNGWHCVCQLGWRGAGCD; listed as Homo sapiens)
Observation type: MIC against P. vulgaris
Unit abbreviation: µg/mL
Recorded value: 50

* * *

Tested on: Aeromonas hydrophila
Assay: MIC against Gram-negative bacteria: Aeromonas hydrophila
Assay type: cell-based
Details: 96-well plate, 5×10^5 CFU/mL, 37° C., 10 h
Observation type: MIC against A. hydrophila

Substance: PRT464 (DLDECRVRNLCQHACRNTEGSYQCLCPAGYRLLPSGKNCQ; listed as Homo sapiens)
Recorded value: 25 µg/mL
//
Substance: PRT541 (CSCDLRGTLGGVAECQPGTGQCFCKPHVCGQACASCKDGFFGLDQADYFGCRS; listed as Homo sapiens)
Recorded value: 50 µg/mL
//
Substance: PRT563 (CVCNYLGTVQEHCNGSDCQCDKATGQCLCLPNVIGQNCDRCAPNTWQLASGTGCDP; listed as Homo sapiens)
Recorded value: 12.5 µg/mL
//
Substance: PRT502 (CECHGHAAECNVHGVCIACAHNTTGVHCEQCLPGFYGEPSRGTPGDCQP; listed as Homo sapiens)
Recorded value: 12.5 µg/mL
//
Substance: PRT479 (AAMACSHQRCHGHGRCARRDPGQMEAFLHLWPDGSLGDWKSFSCHCYWGWAGPTCQ; listed as Homo sapiens)
Recorded value: 50 µg/mL
//
Substance: PRT522 (CVCNGHAEVCNINNPEKLFRCECQHHTCGETCDRCCTGYNQRRWRPAAWEQSHECEA; listed as Homo sapiens)
Recorded value: 50 µg/mL
//
Substance: PRT555 (CDCSAAGTQGNACRKDPRVGRCLCKPNFQGTHCELCAPGFYGPGCQP; listed as Homo sapiens)
Recorded value: 25 µg/mL

* * *

Tested on: Enterobacter cloacae
Assay: MIC against Gram-negative bacteria: Enterobacter cloacae
Type: cell-based
Settings: 96-well plate, 5×10^5 CFU/mL, 37° C., 10 h

Substance: PRT664 (DINECLTLGLCKDAECVNTRGSYLCTCRPGLMLDPSRSRCV; listed as Homo sapiens)
MIC E. cloacae: 25 µg/mL

Substance: PRT655 (DVDECATTDPCVGGHCVNTEGSFNCLCETGFQPSPESGECV; listed as Homo sapiens)
MIC E. cloacae: 50 µg/mL

Substance: PRT690 (EAEECGILDGCTNGRCVRVPEGFTCRCFDGYRLDMTRMACV; listed as Homo sapiens)
MIC E. cloacae: 12.5 µg/mL

Substance: PRT612 (CPCPGGSSCAVVPKTKEVVCTNCPTGTTGKRCELCDDGYFGDPLGRNGPVRLCRL; listed as Homo sapiens)
MIC E. cloacae: 25 µg/mL

Substance: PRT694 (DVDECRRVPPPCAPGRCENSPGSFRCVCGPGFRAGPRAAECL; listed as Homo sapiens)
MIC E. cloacae: 50 µg/mL

Substance: PRT631 (CSCHPQGSVSEQMPCDPVTGQCSCLPHVTARDCSRCYPGFFDLQPGRGCRS; listed as Homo sapiens)
MIC E. cloacae: 25 µg/mL

Substance: PRT711 (GDNMCRVNNGGCSTLCLAIPGGRVCACADNQLLDENGTTCT; listed as Homo sapiens)
MIC E. cloacae: 25 µg/mL

Substance: PRT619 (CNCQGGGACDPDTGDCYSGDENPDIECADCPIGFYNDPHDPRSCKP; listed as Homo sapiens)
MIC E. cloacae: 12.5 µg/mL

Substance: PRT676 (DINECAMPGVCRHGDCLNNPGSYRCVCPPGHSLGPSRTQCI; listed as Homo sapiens)
MIC E. cloacae: 25 µg/mL

Substance: PRT659 (DADECVIFGPGLCPNGRCLNTVPGYVCLCNPGFHYDASHKKCE; listed as Homo sapiens)
MIC E. cloacae: 25 µg/mL

Substance: PRT613 (CQCSDNIDPNAVGNCNRLTGECLKCIYNTAGFYCDRCKDGFFGNPLAPNPADKCKA; listed as Homo sapiens)
MIC E. cloacae: 25 µg/mL

Substance: PRT672 (DIDECMLFGSEICKEGKCVNTQPGYECYCKQGFYYDGNLLECV; listed as Homo sapiens)
MIC E. cloacae: 12.5 µg/mL

Substance: PRT713 (GTNVCARDNGGCKQLCLYRGNSRRTCACAHGYLAEDGVTCL; listed as Homo sapiens)
MIC E. cloacae: 50 µg/mL

Substance: PRT733 (SSNGCSNNMNACQQICLPVPGGLFSCACATGFKLNPDNRSCS; listed as Homo sapiens)
MIC E. cloacae: 50 µg/mL

Substance: PRT622 (CNCNPMGSEPVGCRSDGTCVCKPGFGGPNC; listed as Homo sapiens)
MIC E. cloacae: 25 µg/mL

Substance: PRT609 (CHCSPVGSLSTQCDSYGRCSCKPGVMGDKCDRCQPGFHSLTEAGCRP; listed as Homo sapiens)
MIC E. cloacae: 50 µg/mL

Substance: PRT717 (DLNECLVFGTCSHQCINVEGSYKCVCDQNFQERNNTCI; listed as Homo sapiens)
MIC E. cloacae: 50 µg/mL

Substance: PRT707 (GKTVCEDFCQNGGTCIVTAGNQPYCHCQPEYTGDRCQ; listed as Homo sapiens)
MIC E. cloacae: 12.5 µg/mL

Substance: PRT608 (CDCNGRSQECYFDPELYRSTGHGGHCTNCQDNTDGAHCERCRENFFRLGNNEACSS; listed as Homo sapiens)
MIC E. cloacae: 25 µg/mL

Substance: PRT644 (DINECQLQGVCPNGECLNTMGSYRCTCKIGFGPDPTFS; listed as Homo sapiens)
MIC E. cloacae: 25 µg/mL

Substance: PRT677 (ETDECRLNQNICGHGECVPGPPDYSCHCNPGYRSHPQHRYCV; listed as Homo sapiens)
MIC E. cloacae: 25 µg/mL

Substance: PRT629 (CPCPGQSACTTIPESREVVCTHCPPGQRGRRCEVCDDGFFGDPLGLFGHPQPCHQ; listed as Homo sapiens)
MIC E. cloacae: 12.5 µg/mL

Substance: PRT625 (CNCSGRSEECTFDRELFRSTGHGGRCHHCRDHTAGPHCERCQENFYHWDPRMPCQP; listed as Homo sapiens)
MIC E. cloacae: 50 µg/mL

Substance: PRT735 (GEENCNVNNGGCAQKCQMVRGAVQCTCHTGYRLTEDGHTCQ; listed as Homo sapiens)
MIC E. cloacae: 12.5 µg/mL

Substance: PRT679 (DLNECAKPHLCGDGGFCINFPGHYKCNCYPGYRLKASRPPVCE; listed as Homo sapiens)
MIC E. cloacae: 12.5 µg/mL

Substance: PRT693 (SSGMCQRNPQVCGPGRCISRPSGYTCACDSGFRLSPQGTRCI; listed as Homo sapiens)
MIC E. cloacae: 12.5 µg/mL

Substance: PRT688 (DVDECQLFRDQVCKSGVCVNTAPGYSCYCSNGYYYHTQRLECI; listed as Homo sapiens)
MIC E. cloacae: 12.5 µg/mL

Substance: PRT649 (DVDECLEPNVCANGDCSNLEGSYMCSCHKGYTRTPDHKHCR; listed as Homo sapiens)
MIC E. cloacae: 50 µg/mL

Substance: PRT621 (CQCNNNVDPSASGNCDRLTGRCLKCIHNTAGIYCDQCKAGYFGDPLAPNPADKCRA; listed as Homo sapiens)
MIC E. cloacae: 50 µg/mL

Substance: PRT697 (DVDECAQEPPPCGPGRCDNTAGSFHCACPAGFRSRGPGAPCQ; listed as Homo sapiens)
MIC E. cloacae: 50 µg/mL
